# test-system: IRAK4 (Homo sapiens, UniProt Q9NWZ3)
# Sequence (Q9NWZ3 whole entry): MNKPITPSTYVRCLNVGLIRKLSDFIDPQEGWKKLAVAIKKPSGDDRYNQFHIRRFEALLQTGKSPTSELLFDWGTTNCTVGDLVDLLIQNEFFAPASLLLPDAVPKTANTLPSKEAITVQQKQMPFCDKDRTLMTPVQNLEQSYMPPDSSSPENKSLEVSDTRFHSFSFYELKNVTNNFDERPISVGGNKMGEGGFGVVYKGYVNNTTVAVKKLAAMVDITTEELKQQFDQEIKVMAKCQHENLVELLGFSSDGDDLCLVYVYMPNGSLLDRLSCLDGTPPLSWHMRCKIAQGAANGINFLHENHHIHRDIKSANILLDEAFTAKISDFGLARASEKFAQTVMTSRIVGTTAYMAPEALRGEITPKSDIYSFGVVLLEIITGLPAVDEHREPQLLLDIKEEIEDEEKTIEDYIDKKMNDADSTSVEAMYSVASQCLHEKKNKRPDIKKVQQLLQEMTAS
# method-summary: hPBMC IRAK4 degradation flow assay (monocytes)
# Type: cell-based
# Design: endogenous in cells; host or cells: human PBMCs (monocytes, CD14 positive gate)
# condition-notes: CD14 positive monocytes, 20 h, read-out: hPBMC monocyte DC50 at 20 h
metric-name: DC50

Reference set, count: 2
CCOC(=O)Cn1cc(NC(=O)[C@H]2CCCN(c3cncc(CCCCCCNC[C@H]4CC[C@H](n5cc6cc(NC(=O)c7cccc(C(F)(F)F)n7)c(OC)cc6n5)CC4)c3)C2)ccc1=O [Compound I-42] = < 0.1 µM
CC(C)(O)c1cc2nn([C@H]3CC[C@H](CNCCCCCCCCCn4ccc5c(C(=O)Nc6ccc(=O)n(CC(=O)O)c6)cccc54)CC3)cc2cc1NC(=O)c1cccc(C(F)(F)F)n1 [Compound I-68] = 1 to 10 µM

Shifting focus to the compound that follows.
The compound CCOC(=O)Cn1cc(NC(=O)[C@H]2CCCN(c3cncc(NCCOCCOCCOCCOCCNC[C@H]4CC[C@H](n5cc(NC(=O)c6cnn7ccc(N8C[C@H]9C[C@@H]8CO9)nc67)c(C(F)F)n5)CC4)c3)C2)ccc1=O [Compound I-6] , tested on IRAK4 (Homo sapiens, UniProt Q9NWZ3), showed DC50 of > 10 µM

* * *

Recorded DC50 for the following compounds
# test-system: IRAK4 (Homo sapiens)
# method-summary: hPBMC IRAK4 degradation flow assay (monocytes)
# Type: cell-based
# Parameters: endogenous in cells; host or cells: human PBMCs (monocytes, CD14 positive gate)
# condition-notes: CD14 positive monocytes, 20 h, read-out: hPBMC monocyte DC50 at 20 h
# Procedure: In the hPBMC IRAK4 degradation flow assay, frozen PBMCs were thawed into RPMI with 10% FBS and allowed to recover. On the same day as thawed, PBMCs were plated in 96 well plate, 90 μL per well. […] Twenty hour dose curves were calculated using a 4 parameter logistic regression curve fit, no constraints (Top doses were removed if hook effects were observed and the bottom was constrained to 0). […]

The measured DC50 associated with COc1cc2nn([C@H]3CC[C@H](CNCCOCCOCCOc4cncc(N5CCC[C@H](C(=O)Nc6ccc(=O)n(CC(=O)O)c6)C5)c4)CC3)cc2cc1NC(=O)c1cccc(C(F)(F)F)n1 [Compound I-40] reads > 10 µM

The measured DC50 associated with O=C(O)Cn1cc(NC(=O)c2cc(CCCCCCNC[C@H]3CC[C@H](n4cc(NC(=O)c5cnn6ccc(N7C[C@H]8C[C@@H]7CO8)nc56)c(C(F)F)n4)CC3)cc(-c3cccnc3)c2)ccc1=O [Compound I-93] reads > 10 µM

* * *

# test-system: IRAK4 (Homo sapiens, UniProt Q9NWZ3)
# method-summary: hPBMC IRAK4 degradation flow assay (monocytes)
# Assay type: cell-based
# Design: endogenous in cells; host or cells: human PBMCs (monocytes, CD14 positive gate)
# condition-notes: CD14 positive monocytes, 20 h, read-out: hPBMC monocyte DC50 at 20 h
Recorded DC50 for the following compounds

Reference set, count: 3
CCOC(=O)Cn1cc(NC(=O)c2cccc(-c3cncc(CCCNC[C@H]4CC[C@H](n5cc6cc(NC(=O)c7cccc(C(F)(F)F)n7)c(C(C)(C)O)cc6n5)CC4)c3)c2)ccc1=O = > 10 µM
CCOC(=O)Cn1cc(NC(=O)[C@H]2CCCN(c3cncc(OCCNC[C@H]4CC[C@H](n5cc6cc(NC(=O)c7cccc(C(F)(F)F)n7)c(OC)cc6n5)CC4)c3)C2)ccc1=O = 1 to 10 µM
CCOC(=O)Cn1cc(NC(=O)c2ccc(-c3ccc(F)c(CCCCCCCCCNC[C@H]4CC[C@H](n5cc(NC(=O)c6cnn7ccc(N8C[C@H]9C[C@@H]8CO9)nc67)c(C(F)F)n5)CC4)c3)cc2OC)ccc1=O = > 10 µM

The measured DC50 associated with CC(C)(O)c1cc2nn([C@H]3CC[C@H](CNCCCc4cc(C(=O)Nc5ccc(=O)n(CC(=O)O)c5)cc(-c5cccnc5)c4)CC3)cc2cc1NC(=O)c1cccc(C(F)(F)F)n1 reads > 10 µM
